Target: CD16a-V158 (FcgRIIIa-V158) (Homo sapiens, UniProt P08637, F176V)
Sequence (P08637 17-208 F176V limits assumed): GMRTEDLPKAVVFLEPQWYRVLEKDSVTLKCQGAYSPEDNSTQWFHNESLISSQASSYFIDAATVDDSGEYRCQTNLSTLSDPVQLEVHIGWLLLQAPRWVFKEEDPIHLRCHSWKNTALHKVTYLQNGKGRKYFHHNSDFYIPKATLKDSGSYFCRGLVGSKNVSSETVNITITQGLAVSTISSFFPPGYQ
Assay: SPR, antibody binding to anti-his Fab captured FcgR-his (% Rmax)
Conditions: 1 μM antibody
Experimental: The binding of antibodies to Fc gamma receptors (FcγRs or FcgRs) was studied using biosensor technologies including Biacore surface plasmon resonance (SPR) and Fortebio Biolayer Interferometry (BLI). […] Various his-tagged FcgRs (7 ug/ml) were captured via the C-terminal his-tag using a contact time of 30 s at 10 ul/min, and the binding of 1.0 μM antibody was evaluated in a running buffer of 10 mM NaPO4, 130 mM NaCl, 0.05% p20 (PBS-T) pH 7.1. […]
Form field: % Rmax hCD16a-V158 (one value per entry).
Unit % implied. Number only.

molecule	% Rmax hCD16a-V158 (%)
mAb4-IgG2.3 (protein, left off: another chain or arm of the molecule) constant: ASTKGPSVFPLAPCSRSTSESTAALGCLVKDYFPEPVTVSWNSGALTSGVHTFPAVLQSSGLYSLSSVVTVPSSNFGTQTYTCNVDHKPSNTKVDKTVERKSCVECPPCPAPPVAGPSVFLFPPKPKDTLMISRTPEVTCVVVDVSHEDPEVQFNWYVDGVEVHNAKTKPREEQFNSTFRVVSVLTVVHQDWLNGKEYKCKVSNKGLPAPIEKTISKTKGQPREPQVYTLPPSREEMTKNQVSLTCLVKGFYPSDIAVEWESNGQPENNYKTTPPMLDSDGSFFLYSKLTVDKSRWQQGNVFSCSVMHEALHNHYTQKSLSLSPGK	1

Query block: Given mAb4-IgG2.5 (protein, left off: another chain or arm of the molecule) constant: ASTKGPSVFPLAPSSRSTSESTAALGCLVKDYFPEPVTVSWNSGALTSGVHTFPAVLQSSGLYSLSSVVTVPSSNFGTQTYTCNVDHKPSNTKVDKTVERKCCVECPPCPAPPVAGPSVFLFPPKPKDTLMISRTPEVTCVVVDVSHEDPEVQFNWYVDGVEVHNAKTKPREEQFNSTFRVVSVLTVVHQDWLNGKEYKCKVSNKGLPAPIEKTISKTKGQPREPQVYTLPPSREEMTKNQVSLTCLVKGFYPSDIAVEWESNGQPENNYKTTPPMLDSDGSFFLYSKLTVDKSRWQQGNVFSCSVMHEALHNHYTQKSLSLSPGK , respond with its % Rmax hCD16a-V158.
Result block: 1
